Recorded pIC50 for the following compounds
- Test system: H1975 (KRAS wildtype cell line)
- experiment: Proliferation Assay H1975
- Format: cell-based
- experimentalParameters: Homo sapiens, NCI-H1975, n = 1
- Protocol: The isogenic KRAS lines harboring G12D, G12C, and G12V were obtained from Horizon Discovery labs on a one year lease. These cells were cultured in McCoys media with 10% FBS to 80% confluency. […] Cells were incubated for 72 hours with the drugs, and then viability was assessed using an MTS viability assay. […] Our panel of 30 cell lines and an extensive characterization were obtained from Dr. John Minna (UTSW). […] IC50's were determined using Excelfit.
pIC50: −log10 of the molar value.
recordedMetric: pIC50

1. Cc1ccc(-c2csc(Cn3nc(NS(=O)(=O)c4cccs4)c4ccccc4c3=O)n2)cc1
4.10
2. CCNC(=O)Cc1nn(Cc2nc(-c3ccc(C)cc3)cs2)c(=O)c2ccccc12
4.22

====

- targetOrSystem: CNK1 PH-domain (CNKSR1) (Homo sapiens, UniProt Q969H4)
- Construct: The PH-domain His-fusion proteins (CNK1 and AKT1) were expressed and immobilized on a NTA chip; made in house
- Sequence (Q969H4 403-502 limits assumed): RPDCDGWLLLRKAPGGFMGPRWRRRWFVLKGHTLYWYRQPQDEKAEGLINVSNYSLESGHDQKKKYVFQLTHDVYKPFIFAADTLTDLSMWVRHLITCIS
- experiment: SPR binding assay (Biacore T100), CNK1 PH-domain
- experimentalParameters: date 12 09 13
Recorded Surface Plasmon Resonance CNKSR1 binding (RU max) for the following compounds
recordedMetric: Surface Plasmon Resonance CNKSR1 binding (RU max) (RU * 100/Da)

1. CN1CC(=O)N(/C=C/c2cc(N(S(=O)(=O)c3cccs3)S(=O)(=O)c3cccs3)c3c(c2O)OCO3)C1=O
−0.541
2. CCOC(=O)/C=C/c1c(O)c(OC)cc(NS(=O)(=O)c2cccs2)c1SC
2.635
3. COc1cc(NS(=O)(=O)c2cccs2)c(SC)c(/C=C/C(=O)O)c1O
2.132
4. Cc1ccc(-c2csc(Cn3nc(CC(=O)NCCC(N)=O)c4ccccc4c3=O)n2)cc1
0.316
5. CCOC(=O)/C=C/c1cc(NS(=O)(=O)c2cccs2)c2c(c1O)OCO2
0.817
6. CSc1c(N)cc(O)c(O)c1/C=C/C(=O)O
0.217

====

- targetOrSystem: AKT1 PH-domain (Homo sapiens)
- Construct: The PH-domain His-fusion proteins (CNK1 and AKT1) were expressed and immobilized on a NTA chip; made in house
- Sequence (P31749 5-108 limits assumed): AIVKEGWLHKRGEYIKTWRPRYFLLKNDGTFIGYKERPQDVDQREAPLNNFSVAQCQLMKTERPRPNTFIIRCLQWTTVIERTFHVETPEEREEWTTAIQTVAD
- experiment: SPR binding assay (Biacore T100), AKT1 PH-domain
- experimentalParameters: Table 6; read-out: AKT KD
Recorded Kd for the following molecules
recordedMetric: Kd (µM)

1) Cc1ccc(-c2csc(Cn3nc(CC4OCC(=O)O4)c4ccccc4c3=O)n2)cc1 (stereo not drawn)
2.53
2) CCNC(=O)Cc1nn(Cc2nc(-c3ccc(C)cc3)cs2)c(=O)c2ccccc12
2.53
3) Cc1ccc(-c2csc(Cn3nc(NS(=O)(=O)c4cccs4)c4ccccc4c3=O)n2)cc1
34.2
4) Cc1ccc(-c2csc(Cn3nc(CC4OCCCO4)c4ccccc4c3=O)n2)cc1
66.3
5) Cc1ccc(-c2csc(Cn3nc(CC(=O)O)c4ccccc4c3=O)n2)cc1
51.6
6) CCOC(=O)Cc1nn(Cc2nc(-c3ccc(C)cc3)cs2)c(=O)c2ccccc12
17.3

====

- Test system: H1975 (KRAS wildtype cell line)
- experiment: Proliferation Assay H1975
- Type: cell-based
- experimentalParameters: Homo sapiens, NCI-H1975, n = 1
Recorded IC50 for the following compounds
recordedMetric: IC50 (µM)

1) CCOC(=O)Cc1nn(Cc2nc(-c3ccc(C)cc3)cs2)c(=O)c2ccccc12 [Compound 7]
45
2) Cc1ccc(-c2csc(Cn3nc(CC(=O)NCC(N)=O)c4ccccc4c3=O)n2)cc1 [Compound 82]
70
3) Cc1ccc(-c2csc(Cn3nc(CC(O)CN)c4ccccc4c3=O)n2)cc1 (centres unmarked) [Compound 126]
27
4) Cc1ccc(-c2csc(Cn3nc(CC4OCCCO4)c4ccccc4c3=O)n2)cc1 [Compound 9]
100
